- assay: Chemical stability assessed as half life by HPLC
- Type: physicochemical
Reported half-life is given for each of the following compounds.

compound=CC1=C2O[C@]34OC(C)(C)O[C@@H]3C2=C(C(=O)C1=O)[C@@H]1O[C@H](CC[C@H](C)/C=C(\C)C[C@@H](C)C[C@@H]4C)[C@H](C)[C@H](O)[C@H]1C recordedvalue="< 2340 min"
compound="CC1=C2O[C@]3(O)C=C2C(=C(O)C1=O)[C@@H]1O[C@H](CC[C@H](C)/C=C(\\C)C[C@@H](C)C[C@@H]3C)[C@H](C)[C@H](O)[C@H]1C [KENDOMYCIN]" recordedvalue="< 120 min"

Switching to the query record.
Summary for this compound, `CC1=C2O[C@]34OC5(CCN(C)CC5)O[C@@H]3C2=C(C(=O)C1=O)[C@@H]1O[C@H](CC[C@H](C)/C=C(\C)C[C@@H](C)C[C@@H]4C)[C@H](C)[C@H](O)[C@H]1C` : half-life is < 1380 min

###

- assaySystem: Bcl-2-like protein 1 (Homo sapiens, UniProt Q07817)
- Sequence (Q07817 whole entry): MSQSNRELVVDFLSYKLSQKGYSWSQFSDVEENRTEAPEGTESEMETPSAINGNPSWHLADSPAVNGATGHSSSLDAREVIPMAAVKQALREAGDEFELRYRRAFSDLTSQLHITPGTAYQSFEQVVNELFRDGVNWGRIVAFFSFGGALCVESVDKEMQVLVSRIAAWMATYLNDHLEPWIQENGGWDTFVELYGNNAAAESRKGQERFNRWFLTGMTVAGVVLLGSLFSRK
- assay: Inhibition of interaction between GST-tagged Bcl-xl and Bak by surface plasmon resonance assay
assayMetric: Kd (µM)
Unit µM implied. Number only.

compound=CC1=C2O[C@]34OC5(CCN(C)CC5)O[C@@H]3C2=C(C(=O)C1=O)[C@@H]1O[C@H](CC[C@H](C)/C=C(\C)C[C@@H](C)C[C@@H]4C)[C@H](C)[C@H](O)[C@H]1C assaymetric=Kd recordedvalue=377
compound="CC1=C2O[C@]3(O)C=C2C(=C(O)C1=O)[C@@H]1O[C@H](CC[C@H](C)/C=C(\\C)C[C@@H](C)C[C@@H]3C)[C@H](C)[C@H](O)[C@H]1C [KENDOMYCIN]" assaymetric=Kd recordedvalue=528
compound="CC1=C(O)C(=O)C2=C(C1=O)C(O)C(=O)[C@@H](C)C[C@H](C)C/C(C)=C/[C@@H](C)CC[C@H]1O[C@@H]2[C@H](C)[C@@H](O)[C@H]1C (some centres undefined)" assaymetric=Kd recordedvalue=10800

Query compound follows.
// Kd value for `Cc1cc2c(C(C)C)c(O)c(O)c(C=O)c2c(O)c1-c1c(C)cc2c(C(C)C)c(O)c(O)c(C=O)c2c1O` : 1.71

###

Overview of recorded pKd for various compounds
- assaySystem: UniProt Q07817
- assay: Inhibition of interaction between Bcl-xl and Bak by surface plasmon resonance assay
- experimentalConditions: read-out: Kd
Lab note — pKd values are minus log10 of concentrations in M.

compound=Cc1cc2c(C(C)C)c(O)c(O)c(C=O)c2c(O)c1-c1c(C)cc2c(C(C)C)c(O)c(O)c(C=O)c2c1O recordedvalue=3.47
compound="CC1=C2O[C@]3(O)C=C2C(=C(O)C1=O)[C@@H]1O[C@H](CC[C@H](C)/C=C(\\C)C[C@@H](C)C[C@@H]3C)[C@H](C)[C@H](O)[C@H]1C [KENDOMYCIN]" recordedvalue=2.74

pKd of `CC1=C2O[C@]34OC5(CCN(C)CC5)O[C@@H]3C2=C(C(=O)C1=O)[C@@H]1O[C@H](CC[C@H](C)/C=C(\C)C[C@@H](C)C[C@@H]4C)[C@H](C)[C@H](O)[C@H]1C` , assay on UniProt Q07817, is 3.40
